- Method Description: pKa of alcohol additive in water
- Type: physicochemical
A collection of molecules and their measured pKa in water
// no unit, no text: just the number

# annotated cases, reported pKa in water shown
Molecule	pKa in water
OC(C(F)(F)F)(C(F)(F)F)C(F)(F)F [formula 15d, perfluoro-t-butanol]	5.18
OC(c1ccccc1)(C(F)(F)F)C(F)(F)F [formula 15c]	8.52
OC(C(F)(F)F)C(F)(F)F [formula 15b]	9.13
CC(O)(C(F)(F)F)C(F)(F)F [formula 15a]	9.51

Consider the record given below.
-- ask Please look up its pKa in water: `OC(c1cccc(C(O)(C(F)(F)F)C(F)(F)F)c1)(C(F)(F)F)C(F)(F)F`
-- reply 8.48
